Peptide text beside a SMILES is read from it.
Each entry below carries its measured IC50, system: HLA-A*0301 (Homo sapiens, UniProt P04439).
A bare number is not enough; add the unit after it.

1) CC(C)C[C@H](NC(=O)[C@H](C)NC(=O)[C@H](CC(C)C)NC(=O)[C@@H](N)[C@@H](C)O)C(=O)N[C@@H](CCC(=O)O)C(=O)N[C@H](C(=O)N[C@@H](C)C(=O)N[C@@H](CCC(N)=O)C(=O)N[C@@H](CCC(N)=O)C(=O)N[C@@H](CCCCN)C(=O)O)C(C)C [Mouse Ins2 C23-32] (H-TLALEVAQQK-OH); 856 nM

Proceeding to the next compound to report its IC50.
Item: CC[C@H](C)[C@H](NC(=O)[C@H](C)N)C(=O)N[C@@H](CC(N)=O)C(=O)N[C@@H](CO)C(=O)N[C@@H](CCC(=O)O)C(=O)N[C@@H](CCSC)C(=O)N[C@@H](Cc1ccccc1)C(=O)N[C@@H](CC(C)C)C(=O)N[C@@H](CCCNC(=N)N)C(=O)O [Mouse IGRP 272–280] (H-AINSEMFLR-OH) Test system: HLA-A*0301 (Homo sapiens, UniProt P04439) Read-out: IC50 Value: ?
428 nM

The values you see were collected from paper PMC3358524.
